# Tested on: B16F10 mouse melanoma cells
# protocol notes: B16F10 IFNγ-induced cellular growth inhibition assay
# Assay type: cell-based
# condition info: Mus musculus, B16-F10; +0.5 ng/mL IFNγ; compound 33 μM; relative to DMSO/with IFNγ control; Table 3; read-out: % B16F10 growth inhibition (+0.5 ng/mL IFNγ) @ 33 μM
I'd be grateful if you could share measured inhibition at 33 µM for these entries.

query: Recorded inhibition at 33 µM for CC(C)NC(=O)Oc1ccc2cc(O)c(N3CC(=O)NS3(=O)=O)c(F)c2c1 , please?
result: 60 to 90%

query: Recorded inhibition at 33 µM for CP(C)(=O)N1CC=C(c2ccc3cc(O)c(N4CC(=O)NS4(=O)=O)c(F)c3c2)C1 , please?
result: > 90%

query: Recorded inhibition at 33 µM for CC(C)(O)CCCc1ccc2cc(O)c(N3CC(=O)NS3(=O)=O)c(F)c2c1 , please?
result: 60 to 90%

query: Recorded inhibition at 33 µM for O=C1CN(c2c(O)cc3ccc(CC4CCN(S(=O)(=O)C5CC5)CC4)cc3c2F)S(=O)(=O)N1 , please?
result: 25 to 59%

Entry source: patent US20230019236A1
